System: MDA-MB-453
Measurement protocol: drug sensitivity score (DSS), single agent (DSS (weighted AUC score)); higher = more sensitive (stronger viability decrease); extreme values may be limits of the assay
Conditions: BLU9931 0 nM; 72 h
Quantity name: drug sensitivity score

Compound | Quantitative readout
CCCCC(=O)OCC(=O)[C@]1(O)Cc2c(O)c3c(c(O)c2[C@@H](O[C@H]2C[C@H](NC(=O)C(F)(F)F)[C@H](O)[C@H](C)O2)C1)C(=O)c1c(OC)cccc1C3=O | 8.6
O=C(/C=C\n1cnc(-c2cc(C(F)(F)F)cc(C(F)(F)F)c2)n1)NNc1cnccn1 [Selinexor] | 9.6
O=C(O)C(=O)O.[NH-][C@@H]1CCCC[C@H]1[NH-].[Pt+2] | 8.2
CC[C@]12C=CCN3CC[C@@]4(c5cc([C@@]6(C(=O)OC)C[C@@H]7C[C@@H](C(C)(F)F)CN(Cc8c6[nH]c6ccccc86)C7)c(OC)cc5N(C)[C@H]4[C@@](O)(C(=O)OC)[C@@H]1OC(C)=O)[C@@H]32 | 2.6
CC1=C2C[C@H]3[C@@H](CC[C@@H]4C[C@H](NS(C)(=O)=O)CC[C@@]43C)[C@@H]2CC[C@@]2(C1)O[C@@H]1C[C@H](C)CN[C@H]1[C@H]2C | 0
O=C(O)c1ccc2c(c1)nc(Nc1cccc(Cl)c1)c1ccncc12 | 8.1
C[C@@H]1COCCN1c1cc(C2([S@](C)(=N)=O)CC2)nc(-c2cc[nH]c3nccc2-3)n1 | 11
COc1cc(NS(C)(=O)=O)ccc1Nc1c2ccccc2nc2ccccc12 | 1.2
Nc1ccn([C@@H]2O[C@H](CO)[C@@H](O)C2(F)F)c(=O)n1 | 6.9
S=C(NCc1ccc2c(c1)OCO2)N1CCN(c2ncnc3c2oc2ccccc23)CC1 | 3.3
CNC(=O)[C@@H](NC(=O)[C@H](CC(C)C)[C@H](O)C(=O)NO)C(C)(C)C | 1.1
C[C@@H](Oc1ccc2[nH]nc(/C=C/c3cnn(CCO)c3)c2c1)c1c(Cl)cncc1Cl | 9
CC(C)N(C[C@H]1O[C@@H](n2cnc3c(N)ncnc32)[C@H](O)[C@@H]1O)[C@H]1C[C@@H](CCc2nc3cc(C(C)(C)C)ccc3[nH]2)C1 | 0
O=C(Nc1cccc(Nc2ncc(Br)c(NCCc3cnc[nH]3)n2)c1)N1CCCC1 | 4.5
CNC(=O)c1cc(COc2nnc(Nc3ccc(Cl)cc3)c3ccoc23)ccn1 | 1.2
